All values here come from ChEMBL document CHEMBL3817827.

system: Leishmania infantum; assay: Inhibition of Leishmania infantum recombinant His-tagged TryS expressed in Escherichia coli BL21 (DE3) assessed as residual enzyme activity by measuring inorganic phosphate release at 30 uM after 15 mins by malachite green dye based end-point assay
Item-by-item account of Activity

structureNotation | unitAbbreviation | Activity
O=C(CN1C(=O)Cc2c([nH]c3ccc(Br)cc23)-c2ccc(Cl)cc21)NCc1ccc(Cl)cc1 | % | 109
O=C(CN1C(=O)Cc2c([nH]c3ccc(Br)cc23)-c2ccc(Cl)cc21)NCc1ccc(C(F)(F)F)cc1 | % | 55.4
O=C(CN1C(=O)Cc2c([nH]c3ccc(Br)cc23)-c2ccc(Cl)cc21)NCc1ccccc1 | % | 50
Cc1ccc(CNC(=O)CN2C(=O)Cc3c([nH]c4ccc(Br)cc34)-c3ccc(Cl)cc32)cc1 | % | 48.6
O=C(CN1C(=O)Cc2c([nH]c3ccc(Br)cc23)-c2ccc(Cl)cc21)NCc1ccccn1 | % | 95.5
